target: Tyrosine-protein phosphatase non-receptor type 11 (Homo sapiens); assay: Inhibition of recombinant human phosphatase (SHP-2) at a concentration of 100 uM
assay-metric: inhibition (%)

{"smiles-input": "CCCCCNC(=O)[C@H](Cc1ccc(OC(C(=O)O)C(=O)O)cc1)NC(=O)[C@H](Cc1ccccc1)NC(=O)NC(C)(C)C", "system-tested": "Tyrosine-protein phosphatase non-receptor type 11 (Homo sapiens)", "measured": 6}
{"smiles-input": "CCCCCNC(=O)[C@H](Cc1ccc(OCC(=O)O)c(C(=O)O)c1)NC(=O)[C@H](CCO)NC(=O)OC(C)(C)C", "system-tested": "Tyrosine-protein phosphatase non-receptor type 11 (Homo sapiens)", "measured": 8}
{"smiles-input": "CCCCCNC(=O)[C@H](Cc1ccc(OC(C(=O)O)C(=O)O)cc1)NC(=O)[C@H](CC(N)=O)NC(=O)OC(C)(C)C", "system-tested": "Tyrosine-protein phosphatase non-receptor type 11 (Homo sapiens)", "measured": 8}
{"smiles-input": "CCCCCNC(=O)[C@H](Cc1ccc(OC(C(=O)O)C(=O)O)cc1)NC(=O)[C@H](Cc1ccccc1)NC(=O)CCNC(=O)OC(C)(C)C", "system-tested": "Tyrosine-protein phosphatase non-receptor type 11 (Homo sapiens)", "measured": 8}

###

target: Receptor-type tyrosine-protein phosphatase F (Homo sapiens); assay: Inhibitory activity against phosphatase (LAR) at a concentration of 100 uM
assay-metric: inhibition (%)

Reference set, count: 10
{"molecule": "CCCCCNC(=O)[C@H](Cc1ccc(OC(C(=O)O)C(=O)O)cc1)NC(=O)[C@H](Cc1ccccc1)NS(C)(=O)=O", "inhibition, %": 0}
{"molecule": "CCCCCNC(=O)[C@H](Cc1ccc(OC(C(=O)O)C(=O)O)cc1)NC(=O)[C@H](Cc1ccccc1)NC(=O)OC(C)(C)C", "inhibition, %": 27}
{"molecule": "CCCCCCCCCCCCCCCCCC(=O)N[C@@H](Cc1ccccc1)C(=O)N[C@@H](Cc1ccc(OCC(=O)O)c(C(=O)O)c1)C(=O)NCCCCC", "inhibition, %": 0}
{"molecule": "CCCCCNC(=O)[C@H](Cc1ccc(OCC(=O)O)c(C(=O)O)c1)NC(=O)[C@H](Cc1ccccc1)NC(=O)CCOC", "inhibition, %": 0}
{"molecule": "CCCCCNC(=O)[C@H](Cc1ccc(OCC(=O)O)c(C(=O)O)c1)NC(=O)[C@H](Cc1ccccc1)NC(=O)Cc1ccc(OC)cc1", "inhibition, %": 5}
{"molecule": "CCCCCNC(=O)[C@H](Cc1ccc(OCC(=O)O)c(C(=O)O)c1)NC(=O)[C@H](Cc1ccccc1)N1CCCC1=O", "inhibition, %": 0}
{"molecule": "CCCCCNC(=O)[C@H](Cc1ccc(OC(C(=O)O)C(=O)O)cc1)NC(=O)[C@H](Cc1ccccc1)NC(=O)CCN(CC)CC", "inhibition, %": 0}
{"molecule": "CCCCCNC(=O)[C@H](Cc1ccc(OCC(=O)O)c(C(=O)O)c1)NC(=O)[C@H](Cc1ccccc1)NC(=O)Oc1ccccc1", "inhibition, %": 0}
{"molecule": "CCCCCNC(=O)[C@H](Cc1ccc(OCC(=O)O)c(C(=O)O)c1)NC(=O)[C@H](Cc1ccccc1)NC(C)=O", "inhibition, %": 0}
{"molecule": "CCCCCNC(=O)[C@H](Cc1ccc(OC(C(=O)O)C(=O)O)cc1)NC(=O)[C@H](CC[S+](C)[O-])NC(=O)OC(C)(C)C (stereo not given in full)", "inhibition, %": 0}

I: CCCCCNC(=O)[C@H](Cc1ccc(OCC(=O)O)c(C(=O)O)c1)NC(=O)[C@H](CCOCOC)NC(=O)OC(C)(C)C
II: CCCCCNC(=O)[C@H](Cc1ccc(OCC(=O)O)c(C(=O)O)c1)NC(=O)[C@H](Cc1ccccc1)NC(=O)CCNS(C)(=O)=O
III: CCCCCNC(=O)[C@H](Cc1ccc(OC(C(=O)O)C(=O)O)cc1)NC(=O)[C@H](Cc1ccc2ccccc2c1)NC(=O)OC(C)(C)C
IV: CCCCCNC(=O)[C@H](Cc1ccc(OC(C(=O)O)C(=O)O)cc1)NC(=O)[C@H](Cc1ccccc1)NC(=O)NC(C)(C)C
Problem: Please give the order of these molecules when sorted by inhibition, largest value leading. Reply: labels, ordered per the request.
Result: IV, II, III, I
(IV: 21%, II: 10%, III: 4%, I: 0%)
